compounds and their reported EC50
system: TNFα; assay: Cot Monocyte TNFα Cell Based Assay; conditions: Homo sapiens, Monocyte, read-out: EC50 TNF, LPS-stimulated human monocytes, TNFα
Give just the numeric value; nM need not be written.

Consider the worked cases shown below.
* CC(C)(C)n1cc([C@@H](Nc2cc(Cl)c3ncc(C#N)c(Nc4cnc(F)c(F)c4)c3c2)c2cccnc2)nn1 | 982
* CC(C)(C)CNc1c(C#N)cnc2c(C#N)cc(N[C@H](c3cn(C4(C(F)(F)F)CC4)nn3)c3ccc(C#N)c4cnccc34)cc12 | 102
* Cc1ncsc1[C@H](Nc1cc(Cl)c2ncc(C#N)c(NCC(C)(C)C)c2c1)c1cn(C2(C3CC3)CC2)nn1 | 188
* Cn1ccc2c([C@H](Nc3cc(Cl)c4ncc(C#N)c(NCC(C)(C)C)c4c3)c3cn(C4(C)COC4)nn3)cccc2c1=O | 58
* Cc1nc(F)ccc1[C@H](Nc1cc(Cl)c2ncc(C#N)c(NCC(C)(C)C)c2c1)c1cn(C(CF)CF)nn1 | 50

Suppose we examine the compound Cc1nc(F)ccc1[C@H](Nc1cc(Cl)c2ncc(C#N)c(NCC(C)(C)S(C)(=O)=O)c2c1)c1cn(C2(C(F)(F)F)CC2)nn1 ; what EC50 value has been reported?
403

* * *

system: TNFα; test: Cot Monocyte TNFα Cell Based Assay; conditions: Homo sapiens, Monocyte, read-out: EC50 TNF, LPS-stimulated human monocytes, TNFα
Please use the following EC50 ranges when assigning a class: small value = under 100 nM, mid value = from 100 nM up to 200 nM, large value = 200 nM and over

// bin(item) where item = N#Cc1cnc2c(Cl)cc(N[C@@H](c3cccnc3)c3c[nH]nn3)cc2c1Nc1ccc(F)c(Cl)c1
large value

Looking at CC(C)(C)CNc1c(C#N)cnc2c(Cl)cc(N[C@H](c3cn(C4CC4)nn3)c3cccc4ccncc34)cc12 , which class would you pick?
small value

Category of CCc1ncccc1[C@H](Nc1cc(Cl)c2ncc(C#N)c(NCC(C)(C)C)c2c1)c1cn(C2(C(F)(F)F)CC2)nn1 , please.
mid value

Kindly state the category for this compound: N#CCC[C@@H](Nc1c(C#N)cnc2c(Cl)cc(N[C@@H](c3cccnc3)c3cn(C4CC4)nn3)cc12)c1ccccc1
small value

State the band of CC(C)(C)CNc1c(C#N)cnc2c(Cl)cc(N[C@H](c3cn(C4(C(F)(F)F)CC4)nn3)c3cccc4c(=O)n(CC(F)(F)F)ccc34)cc12
large value

Bin this entry: Cc1nc([C@H](Nc2cc(C#N)c3ncc(C#N)c(NCC(C)(C)C)c3c2)c2cn(C3(C(F)F)CC3)nn2)c(C)o1
large value

Which category does the recorded EC50 put CC[C@@H](Nc1c(C#N)cnc2c(Cl)cc(N[C@@H](c3cccnc3)c3cn(C4CC4)nn3)cc12)c1ccccc1 in?
mid value

Band of CC(C)(C)CNc1c(C#N)cnc2c(C#N)cc(N[C@H](c3cn(C4(C#N)CC4)nn3)c3cccc4cnccc34)cc12 ?
small value

For Cn1ccc2c([C@H](Nc3cc(C#N)c4ncc(C#N)c(NCC(C)(C)C)c4c3)c3cn(C4(C(F)(F)F)CC4)nn3)ccnc21 , which EC50 bin applies?
mid value

Into which category would you place CC(C)(C)CNc1c(C#N)cnc2c(Cl)cc(N[C@H](c3cn(C4(C(F)(F)F)CC4)nn3)c3cccc4c(=O)n(C(F)F)ccc34)cc12 ?
large value

Assign a category based on measured EC50 for Cn1ccc2c([C@H](Nc3cc(Cl)c4ncc(C#N)c(NCC(C)(C)C)c4c3)c3cn(C4CCC4)nn3)cccc2c1=O and give only the class name.
small value

Bin this entry: CC(C)(C)N1CCC(n2cc([C@@H](Nc3cc(Cl)c4ncc(C#N)c(Nc5ccc(F)c(Cl)c5)c4c3)c3ccc4scnc4c3)nn2)CC1
large value

* * *

tested on: TNFα; experiment: Cot Monocyte TNFα Cell Based Assay; details: Homo sapiens, Monocyte, read-out: EC50 TNF, LPS-stimulated human monocytes, TNFα
Could you please mark True for values of EC50 below 300 nM and False for values at or above it?

Sample answers from the record:
• CC(C)n1cc([C@@H](Nc2cc(Cl)c3ncc(C#N)c(Nc4ccc(F)c(Cl)c4)c3c2)c2cccn3nccc23)nn1 [Example 157] = True
• CC[C@@H](Nc1c(C#N)cnc2c(Cl)cc(N[C@@H](c3cccnc3)c3cn(C(C)C)nn3)cc12)c1ccccc1 [Example 193] = True

Criterion: EC50 strictly below 300 nM. Is it met by CC(C)(C)CNc1c(C#N)cnc2c(C#N)cc(N[C@H](c3cn(C4(C(F)(F)F)CC4)nn3)c3ccc(F)c4ncccc34)cc12 [Example 627] ?
True

Bench note: check whether N#CCC[C@@H](Nc1c(C#N)cnc2c(Cl)cc(N[C@H](c3cn(C4CC4)nn3)c3cccc4c3CNC4)cc12)c1ccccc1 [Example 68] shows EC50 below 300 nM
True

Is the reported EC50 for CC(C)(C)CNc1c(C#N)cnc2c(C#N)cc(N[C@H](c3cn(C4(C5CC5)CC4)nn3)c3cccc4cnccc34)cc12 [Example 703] strictly below 300 nM?
True

Confirm or reject: EC50 of Cn1ncc2c([C@H](Nc3cc(Cl)c4ncc(C#N)c(NCC(C)(C)C)c4c3)c3cn(C4(C(F)(F)F)CC4)nn3)cccc21 [Example 543] lies strictly below 300 nM
False

Does this molecule meet the criterion EC50 < 300 nM? N#Cc1csc([C@H](Nc2cc(Cl)c3ncc(C#N)c(Nc4ccc(F)c(Cl)c4)c3c2)c2cn(Cc3ccccn3)nn2)c1 [Example 317]
True

Input CC(C)(C)CNc1c(C#N)cnc2c(Cl)cc(N[C@H](c3cn(C4(C#N)CC4)nn3)c3cccc4cnccc34)cc12 [Example 563] ; condition: EC50 strictly below 300 nM. Does it hold?
True

Answer whether the molecule CCN1CCC(n2cc([C@@H](Nc3cc(Cl)c4ncc(C#N)c(Nc5ccc(F)c(Cl)c5)c4c3)c3ccc4cccnc4c3)nn2)CC1 [Example 65] has EC50 strictly less than 300 nM
False

State whether 300 nM exceeds EC50 recorded for Cc1nc(F)ccc1[C@H](Nc1cc(C#N)c2ncc(C#N)c(NCC(C)(C)C)c2c1)c1cn(C(C)(C)C)nn1 [Example 589] .
True

Quick check: EC50 of [2H]c1c([C@@H](Nc2cc(C#N)c3ncc(C#N)c(NCC(C)(C)C)c3c2)c2ccc(F)nc2C)nnn1C1(C(F)(F)F)CC1 [Example 574] under 300 nM?
True

Please determine if C[C@@H](n1cc([C@@H](Nc2cc(Cl)c3ncc(C#N)c(Nc4cnc(F)c(F)c4)c3c2)c2cccnc2)nn1)C(F)(F)F [Example 205] is below 300 nM in terms of EC50.
False

hey, is EC50 for Cc1nc(F)ccc1[C@H](Nc1cc(C#N)c2ncc(C#N)c(NCC(C)(C)C)c2c1)c1cn(C2(C#N)CC2)nn1 [Example 489] lower than 300 nM or not?
True

Decide: EC50 of CCN1CCC(n2cc([C@@H](Nc3cc(Cl)c4ncc(C#N)c(Nc5ccc(F)c(Cl)c5)c4c3)c3sccc3Cl)nn2)CC1 [Example 389] strictly below 300 nM?
False

* * *

Here the recorded log10(EC50) is given for each entry.
test system: TNFα; test: Cot Monocyte TNFα Cell Based Assay; conditions: Homo sapiens, Monocyte, read-out: EC50 TNF, LPS-stimulated human monocytes, TNFα
Answers are given as log10 of EC50 in nM.

Worked cases, answers included:
• CCN1CCC(n2cc(C(Nc3cc(Cl)c4ncc(C#N)c(Nc5ccc(F)c(Cl)c5)c4c3)c3cncnc3)nn2)CC1 (stereo not shown) [Example 366] = 2.53
• N#Cc1cnc2c(Cl)cc(N[C@H](c3cn(C4COC4)nn3)c3csc4c3CCNC4)cc2c1Nc1ccc(F)c(Cl)c1 [Example 279] = 2.66
• CC(C)(C)CNc1c(C#N)cnc2c(Cl)cc(N[C@H](c3cn(C4CC4)nn3)c3cccc4ncccc34)cc12 [Example 437] = 1.91

Consider now this further molecule.
What log10(EC50) value was documented for this molecule, Cc1nc(F)ccc1[C@H](Nc1cc(C#N)c2ncc(C#N)c(NCC(C)(C)C)c2c1)c1cn(C2(C(F)F)CC2)nn1 [Example 473] ?
1.41

* * *

Each entry below lists one item and its recorded EC50 value.
test system: TNFα; assay: Cot Monocyte TNFα Cell Based Assay; settings: Homo sapiens, Monocyte, read-out: EC50 TNF, LPS-stimulated human monocytes, TNFα
# output: bare number, implied unit nM

* Cn1cnc2cccc([C@H](Nc3cc(Cl)c4ncc(C#N)c(NCC(C)(C)C)c4c3)c3cn(C4(C(F)(F)F)CC4)nn3)c21 | 108
* [2H]C(Nc1cc(Cl)c2ncc(C#N)c(N[C@H](CCO)c3ccccc3)c2c1)(c1ccc(F)nc1)c1cn(C2CC2)nn1 (stereo partly drawn) | 171

Need EC50, item CC(=O)c1cc(N[C@H](c2cn(C3(C(F)(F)F)CC3)nn2)c2cccc3ncsc23)cc2c(NCC(C)(C)C)c(C#N)cnc12
184
